- Method Notes: Liver microsome metabolism stability test (human)
- Type: in vitro ADME
- Condition Details: human liver microsomes, 1 μM compound; read-out: in vitro T1/2
Measured Parameter: half-life at 1 μM (min)
Your answer is read as min, so omit the unit and give the number.

What does the record list as half-life at 1 μM for O=C(c1ccc(F)cn1)N1CCC2(CC(O)c3cc(-c4ccccc4C4CC4)ccc32)C1 (stereo not shown) [Example 15] ? 19.7

---

- Method Notes: Parallel artificial membrane permeability test (Lipid PAMPA)
- Assay type: in vitro ADME
- Condition Details: test concentration 10 μM, pH 7.4, 16 hours, read-out: Effective penetration rate Pe
Exercise: for every item that follows, state its recorded Papp at 16 h, 10 μM.

What measured Papp at 16 h, 10 μM goes with `O=C(c1ccc(F)cn1)N1CC[C@@]2(C[C@@H](O)c3cc(-c4ccccc4C4CC4)ccc32)C1` ? 16.3 ×10⁻⁶ cm/s

Could you tell me which Papp at 16 h, 10 μM is on file for O=C(c1ccc(F)cn1)N1CCC2(CC(O)c3cc(-c4ccccc4C4CC4)ccc32)C1 (centres unmarked) ? 14.1 ×10⁻⁶ cm/s

Data credit: patent US20260174786A1
